- Substrate: O=C(CO)[C@@H](O)[C@H](O)[C@H](O)CO
- experiment: Determination of kinetic parameters of DPEase (HPLC assay of D-psicose formed)
- Assay type: biochemical, Clostridium cellulolyticum
- condition_notes: other: 50 mM Tris-HCl buffer (pH 8.0), 0.1mM Co^2+, 5-200mM substrate, 55 °C
For each entry below, report its kcat/Km value.
Include the unit after the number when you answer.

Problem: Find the measured kcat/Km of D-psicose 3-epimerase (DPEase) from Clostridium cellulolyticum, variant G211W (Ruminiclostridium cellulolyticum H10; G211W) (protein, made in house; host or cells: Bacillus subtilis WB600 (pMA5)) MKHGIYYAYWEQEWEADYKYYIEKVAKLGFDILEIAASPLPFYSDIQINELKACAHGNGITLTVGHGPSAEQNLSSPDPDIRKNAKAFYTDLLKRLYKLDVHLIGGALYSYWPIDYTKTIDKKGDWERSVESVREVAKVAEACGVDFCLEVLNRFENYLINTAQEGVDFVKQVDHNNVKVMLDTFHMNIEEDSIGGAIRTAGSYLGHLHTWECNRKVPGRGRIPWVEIGEALADIGYNGSVVMEPFVRMGGTVGSNIKVWRDISNGADEKMLDREAQAALDFSRYVLECHKHS and report it.
Solution: 68.1 mM^-1 min ^-1

Problem: Determine its reported kcat/Km: D-psicose 3-epimerase (DPEase) from Clostridium cellulolyticum, variant G211A (Ruminiclostridium cellulolyticum H10; G211A) (protein, made in house; host or cells: Bacillus subtilis WB600 (pMA5)) MKHGIYYAYWEQEWEADYKYYIEKVAKLGFDILEIAASPLPFYSDIQINELKACAHGNGITLTVGHGPSAEQNLSSPDPDIRKNAKAFYTDLLKRLYKLDVHLIGGALYSYWPIDYTKTIDKKGDWERSVESVREVAKVAEACGVDFCLEVLNRFENYLINTAQEGVDFVKQVDHNNVKVMLDTFHMNIEEDSIGGAIRTAGSYLGHLHTAECNRKVPGRGRIPWVEIGEALADIGYNGSVVMEPFVRMGGTVGSNIKVWRDISNGADEKMLDREAQAALDFSRYVLECHKHS
Solution: 9.8 mM^-1 min ^-1

All figures here come from patent EP2843044A1.
